Listing of recorded Kd by entry.
# assayedSystem: T1, human MerTK (human, UniProt Q12866 26-499)
# T1 construct: also called HuMER
# T1 sequence: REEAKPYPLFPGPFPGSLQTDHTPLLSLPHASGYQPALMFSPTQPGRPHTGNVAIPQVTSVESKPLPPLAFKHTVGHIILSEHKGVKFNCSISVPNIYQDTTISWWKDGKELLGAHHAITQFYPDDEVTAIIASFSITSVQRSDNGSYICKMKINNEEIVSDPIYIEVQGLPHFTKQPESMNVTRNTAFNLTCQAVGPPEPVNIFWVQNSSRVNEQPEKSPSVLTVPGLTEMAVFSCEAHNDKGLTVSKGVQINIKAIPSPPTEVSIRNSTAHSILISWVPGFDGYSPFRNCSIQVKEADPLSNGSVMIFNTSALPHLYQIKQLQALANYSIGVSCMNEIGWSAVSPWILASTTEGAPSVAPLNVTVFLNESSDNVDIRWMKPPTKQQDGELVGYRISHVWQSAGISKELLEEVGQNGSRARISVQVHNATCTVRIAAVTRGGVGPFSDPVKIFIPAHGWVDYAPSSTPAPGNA
# protocolDetails: SPR BIAcore T200, Ab captured, 37C
valueType: Kd (nM)

1) h10F7.v1 (antibody, V domains shown, also called h10F7.V1 (Parent); 10F7 Humanized mAb V1) VH: EQQLVESGGGLVQPGGSLRLSCAVSGFSLSGYAMSWVRQAPGKGLEYIGVISSSGSSYYPSWAKGRFTISKDSSKNTVYLQMGSLRAEDMAVYFCARVQFYVGYAVYGYGIIDRLDLWGQGTLVTVSS VL: DAVLTQSPDSLAVSLGERATINCQSSKSVYNNNWLSWYQQKPGQPPKLLIYRASTLESGVPDRFSGSGSGTDFTLTISSLQAEDVAVYFCAGGYSSSSSANAFGGGTKVEIK | 7.1
2) h10C3.v1 (antibody, V domains shown, also called h10C3.V1 (Parent); 10C3 Humanized mAb V1) VH: EQQLVESGGGLVQPGGSLRLSCAASGFSLSGYTMGWVRQAPGKGLEYIGVISSGGTTYYTNWAKGRFTISKDSSKNTVYLQMGSLRAEDMAVYFCARVAFTAYGGGGFPTLHRLDLWGQGTLVTVSS VL: DQVLTQSPDSLAVSLGERATINCQSSESVYNNDYLAWYQQKPGQPPKLLIYSASTLASGVPDRFSGSGSGTDFTLTISSLQAEDVAVYYCAGGYLGNNVFGGGTKVEIK | 11.6
